# System tested: human Fc (human)
# Measurement description: ELISA, negative control
Please provide measured optical density for the entries that follow.
Please give a number only; it is taken to be in OD.

Entry 371_H02 (antibody, V domains shown) VH: EVQLLESGGGLVQPGGSLRLSCAASGFTFDDYSMNWVRQAPGKGLEWVSGINYNGGYKSYADSVKGRFTISRDNSKNTLYLQMNSLRAEDTAVYYCARAANWHDTHLDYWGQGTLVTVSS VL: DIQMTQSPSSLSASVGDRVTITCRASQSIISYLNWYQQKPGKAPKLVIYAATSLASGVPSRFSGSGSGTDFTLTISSLQPEDFATYYCQQSYENPLTFGGGTKVEIK , optical density reported as 0.388

Entry 371_C01 (antibody, V domains shown) VH: EVQLLESGGGLVQPGGSLRLSCAASGFTFSSYGMHWVRQAPGKGLEWVSSINYNGGYTGYADSVKGRFTISRDNSKNTLYLQMNSLRAEDTAVYYCARGANWHDTHLDYWGQGTLVTVSS VL: DIQMTQSPSSLSASVGDRVTITCRASQSIVSYLNWYQQKPGKAPKLLIYAATSRHSGVPSRFSGSGSGTDFTLTISSLQPEDFATYYCQQSYDNPLTFGGGTKVEIK , optical density reported as 0.402

Hey, just so you know, these numbers are from patent US20210380703A1.
